Entries and their TGI values follow.
Tested on: U251 CNS
Assay Method Text: NCI tumour cell line growth inhibition, 48 h
Parameter Measured: TGI

>>> df
                                   compound     value
0  COc1cc(OC(=O)c2c(O)cc(O)c(O)c2C)cc(C)c1C(=O)Oc1cc(C)c(C(=O)O)c(O)c1  > 100 µM
1  CC[C@]12C=CCN3CC[C@@]4(c5cc(Br)c(OC)c([N+](=O)[O-])c5N(C)[C@H]4[C@@](O)(C(=O)OC)[C@@H]1OC(C)=O)[C@@H]32  > 100 µM
2  CC[C@@]1(O)C(=O)OCc2c1cc1n(c2=O)Cc2c-1nc1ccccc1c2/C=N\NC(=O)C[n+]1ccccc1     32 µM
3  CN/N=C(/CCN1CCCC1)CC(c1ccccc1)c1c(O)c2ccccc2oc1=O (stereo not given)  > 100 µM
4  COC(=O)C1C2OC(C)(C)OC2CN1S(=O)(=O)c1ccc(C)cc1 (stereo not given)  > 100 µM
5  CCCCCCCCCCCCCCCCP(=O)(O)OCC(N)C(=O)O (stereo not given)  > 100 µM
6  COC(=O)c1cccc2cccc(C(=O)Nc3ccc(C)cc3C)c12  > 100 µM
7        C=CCCCCCCCCC(=O)NS(=O)(=O)c1ccccc1  > 100 µM
8            CCN(CC)c1sc(N(CC)CC)c2c1SSSSS2   13.2 µM
9  CC1(n2nc(-c3ccccc3)n(-c3ccccc3)c2=O)CSC1  > 100 µM

====

Tested on: HL-60(TB) leukemia
Assay Method Text: NCI tumour cell line growth inhibition, 48 h

Compound	TGI
O=C1C2=Cc3ccccc3CCN2c2ccccc21	72.4 µM
COC(=O)C1=NC(=S)NC(c2ccccc2)C1c1nc2ccccc2s1 (centres undefined)	> 100 µM
CC(=O)OC1Oc2ccccc2-c2oc(=O)c(-c3cc4ccc(N(C)C)cc4oc3=O)cc21 (centres undefined)	> 100 µM
NCCCC[C@@H]1NC(=O)[C@H]2CCCN2C(=O)[C@H](Cc2ccccc2)NC(=O)[C@H](Cc2ccccc2)CNC1=O	> 100 µM
CCN(CC)c1ccc(C(=N)c2ccc(N(CC)CC)cc2)cc1	1.13 µM
NC(CSS(=O)(=O)O)=NC1CC2CCC1C2 (centres undefined)	> 100 µM
CC(=O)NC1C(OCc2ccccc2)OC(CO)C(O)C1OC(C)C(=O)NC(C(=O)NC(CCC(=O)NCCCC(=O)Nc1ccc2c(c1)CN1C(=O)c3ccccc3C1=N2)C(N)=O)C(C)C (centres undefined)	> 100 µM
O=C(c1cccc(O)c1O)c1cn(Cc2ccc(F)cc2)c2cccc(O)c12	6.93 µM
NC1=NN(c2ccccc2)C(=O)C1C(=O)CCC(=O)Nc1cccc(C(F)(F)F)c1 (centres undefined)	> 100 µM

====

System: HS 578T breast
Assay Method Text: NCI tumour cell line growth inhibition, 48 h; in the data active means GI50 below about 0.43 µM; inactive means the rest
Possible outcomes: yes = active, no = inactive

                                        smi  qualitative_label
0  COC(=O)Nc1nc2ccc(Oc3ccc(NC(=O)Nc4ccccc4)cc3)cc2[nH]1                yes
1  Clc1nc(Cl)c2ncn(Cc3cccc(COc4cccc(OCc5cccc(Cn6cnc7c(Cl)nc(Cl)nc76)c5)c4)c3)c2n1                 no
2  CCN(CC)CCN1CC(O)=C(c2nc(-c3ccc(Cl)cc3)cs2)C1=N                 no
3  Cc1ccc(/C(=C/C=C(C#N)C#N)Sc2ccc(Cl)cc2)cc1                 no
4  COc1ccc(OC)c(/C=C/C(=O)N/N=C/c2ccc(Cl)cc2)c1                yes
